# log10(Kb) listing for each entry below
Molecular target: Histamine H3 receptor (Cavia porcellus, UniProt Q9JI35)
Sequence (Q9JI35 whole entry): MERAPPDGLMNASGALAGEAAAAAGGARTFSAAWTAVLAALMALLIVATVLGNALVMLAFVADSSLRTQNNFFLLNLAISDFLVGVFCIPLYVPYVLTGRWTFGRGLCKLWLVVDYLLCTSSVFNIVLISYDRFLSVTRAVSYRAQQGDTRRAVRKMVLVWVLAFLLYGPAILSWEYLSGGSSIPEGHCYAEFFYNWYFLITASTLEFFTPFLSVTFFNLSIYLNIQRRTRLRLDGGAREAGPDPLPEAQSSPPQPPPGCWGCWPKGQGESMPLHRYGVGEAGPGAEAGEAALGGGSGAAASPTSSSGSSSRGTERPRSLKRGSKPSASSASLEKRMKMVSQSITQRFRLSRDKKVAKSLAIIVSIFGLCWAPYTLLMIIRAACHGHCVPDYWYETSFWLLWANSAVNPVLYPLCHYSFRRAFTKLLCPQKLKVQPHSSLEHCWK
Assay: Antagonist potency against histamine H3 receptor in an electrically stimulated guinea pig ileum
Format: functional, tissue-based
Conditions: read-out: pA2 (converted)
MEASUREMENT_LABEL: log10(Kb) (log10 of the value in nM)

[[record]]
input_smiles = "O=C(CCN1CCC(Cc2c[nH]cn2)CC1)Nc1ccccc1"
measurement_label = "log10(Kb)"
numeric_readout = 0.10

[[record]]
input_smiles = "COc1ccc(NC(=O)CCN2CCC(Cc3cnc[nH]3)CC2)cc1"
measurement_label = "log10(Kb)"
numeric_readout = 0.20

[[record]]
input_smiles = "O=S(=O)(CCCN1CCC(Cc2c[nH]cn2)CC1)c1ccccc1"
measurement_label = "log10(Kb)"
numeric_readout = 1.90

[[record]]
input_smiles = "COC(=O)c1ccc(NC(=O)CCN2CCC(Cc3cnc[nH]3)CC2)cc1"
measurement_label = "log10(Kb)"
numeric_readout = 0.20

[[record]]
input_smiles = "Clc1cccc(OCCCN2CCC(Cc3cnc[nH]3)CC2)c1"
measurement_label = "log10(Kb)"
numeric_readout = 1.10

[[record]]
input_smiles = "Clc1cccc(NCCCN2CCC(Cc3cnc[nH]3)CC2)c1"
measurement_label = "log10(Kb)"
numeric_readout = 0.60

[[record]]
input_smiles = "O=C(CCN1CCC(Cc2c[nH]cn2)CC1)Nc1cccc(F)c1"
measurement_label = "log10(Kb)"
numeric_readout = -0.90


====

Target: Histamine H3 receptor (Cavia porcellus)
Experiment: Antagonist potency against histamine H3 receptor in an electrically stimulated guinea pig ileum
Assay type: functional, tissue-based
Details: read-out: pA2 (converted)
MEASUREMENT_LABEL: Kb (nM)

[[record]]
input_smiles = "O=C(CCCN1CCC(Cc2cnc[nH]2)CC1)Nc1ccc(Cl)cc1"
units_label = "nM"
numeric_readout = 5.01

[[record]]
input_smiles = "CCCCCCCN1CCC(Cc2cnc[nH]2)CC1"
units_label = "nM"
numeric_readout = 2.51

[[record]]
input_smiles = "O=C(CCN1CCC(Cc2c[nH]cn2)CC1)Nc1cccc(Cl)c1"
units_label = "nM"
numeric_readout = 0.158

[[record]]
input_smiles = "O=C(CCCc1ccccc1)N1CCC(Cc2cnc[nH]2)CC1"
units_label = "nM"
numeric_readout = 15.8

[[record]]
input_smiles = "O=C(CCN1CCC(Cc2c[nH]cn2)CC1)Nc1ccc(Cl)cc1"
units_label = "nM"
numeric_readout = 0.0794

[[record]]
input_smiles = "CCCCCCC(=O)N1CCC(Cc2c[nH]cn2)CC1"
units_label = "nM"
numeric_readout = 39.8

[[record]]
input_smiles = "c1ccc(CCCCN2CCC(Cc3cnc[nH]3)CC2)cc1"
units_label = "nM"
numeric_readout = 6.31

[[record]]
input_smiles = "Clc1ccc(CCCCN2CCC(Cc3cnc[nH]3)CC2)cc1"
units_label = "nM"
numeric_readout = 1.58

[[record]]
input_smiles = "c1ccc(OCCCN2CCC(Cc3c[nH]cn3)CC2)cc1"
units_label = "nM"
numeric_readout = 5.01

[[record]]
input_smiles = "O=C(CCN1CCC(Cc2cnc[nH]2)CC1)NC1CCCCC1"
units_label = "nM"
numeric_readout = 6.31

[[record]]
input_smiles = "O=C(CCOc1ccccc1)N1CCC(Cc2cnc[nH]2)CC1"
units_label = "nM"
numeric_readout = 15.8

[[record]]
input_smiles = "O=C(NCCN1CCC(Cc2cnc[nH]2)CC1)c1ccc(Cl)cc1"
units_label = "nM"
numeric_readout = 12.6


====

Target: Histamine H3 receptor (Homo sapiens)
Sequence (Q9Y5N1 whole entry): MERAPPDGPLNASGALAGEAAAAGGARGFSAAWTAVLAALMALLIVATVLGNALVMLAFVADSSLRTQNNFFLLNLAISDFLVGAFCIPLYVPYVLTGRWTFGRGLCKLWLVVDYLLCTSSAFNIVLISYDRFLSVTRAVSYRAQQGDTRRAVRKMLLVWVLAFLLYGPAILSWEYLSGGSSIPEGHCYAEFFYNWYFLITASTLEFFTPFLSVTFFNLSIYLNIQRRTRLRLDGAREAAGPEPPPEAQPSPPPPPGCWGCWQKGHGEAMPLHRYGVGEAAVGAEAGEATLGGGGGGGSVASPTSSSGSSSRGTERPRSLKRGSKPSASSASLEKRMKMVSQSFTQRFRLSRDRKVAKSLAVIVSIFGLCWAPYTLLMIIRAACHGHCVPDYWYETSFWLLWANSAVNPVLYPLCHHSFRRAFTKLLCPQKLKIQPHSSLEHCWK
pKi: −log10 of the molar value.
MEASUREMENT_LABEL: pKi

[[record]]
input_smiles = "O=C(CCN1CCC(Cc2c[nH]cn2)CC1)Nc1ccc(Cl)cc1"
numeric_readout = 8.77


====

pKi: −log10 of the molar value.
Histamine H3 receptor (Cavia porcellus, UniProt Q9JI35): reported pKi for various molecules.
MEASUREMENT_LABEL: pKi

[[record]]
molecule = "O=C(CCN1CCC(Cc2c[nH]cn2)CC1)Nc1cccc(F)c1"
numeric_readout = 9.70

[[record]]
molecule = "c1ccc(CCCCN2CCC(Cc3cnc[nH]3)CC2)cc1"
numeric_readout = 8.30

[[record]]
molecule = "O=C(CCCN1CCC(Cc2cnc[nH]2)CC1)Nc1ccc(Cl)cc1"
numeric_readout = 7.77

[[record]]
molecule = "O=C(NCCN1CCC(Cc2cnc[nH]2)CC1)c1ccc(Cl)cc1"
numeric_readout = 8.05

[[record]]
molecule = "O=C(NCCCN1CCC(Cc2cnc[nH]2)CC1)c1ccc(Cl)cc1"
numeric_readout = 7.89

[[record]]
molecule = "O=C(CCCc1ccccc1)N1CCC(Cc2cnc[nH]2)CC1"
numeric_readout = 8.05

[[record]]
molecule = "c1nc(CC2CCNCC2)c[nH]1 [IMMEPIP]"
numeric_readout = 9.40

[[record]]
molecule = "COC(=O)c1ccc(OCCC(=O)N2CCC(Cc3c[nH]cn3)CC2)cc1"
numeric_readout = 6.20

[[record]]
molecule = "COc1ccc(NC(=O)CCN2CCC(Cc3cnc[nH]3)CC2)cc1"
numeric_readout = 8.52

[[record]]
molecule = "Clc1ccc(CCCCN2CCC(Cc3cnc[nH]3)CC2)cc1"
numeric_readout = 8.22

[[record]]
molecule = "O=C(CCN1CCC(Cc2c[nH]cn2)CC1)Nc1ccccc1"
numeric_readout = 8.70

[[record]]
molecule = "O=S(=O)(CCN1CCC(Cc2c[nH]cn2)CC1)Nc1ccc(Cl)cc1"
numeric_readout = 6.77

[[record]]
molecule = "O=C(CCN1CCC(Cc2cnc[nH]2)CC1)NC1CCCCC1"
numeric_readout = 8.52

